Provenance of the data: PubChem BioAssay (NCATS)

- tested_target: Cytochrome P450 2C9 (Homo sapiens)
- method_description: Cytochrome P450 family 2 subfamily C member 9 (CYP2C9) small molecule antagonists: luciferase biochemical (cell-free) qHTS assay (AID 1645842); further: nearly all actives have a fitted effect of over 55% in size
- test_conditions: P450-Glo CYP2C9 enzyme assay, luciferin luminescence; series mostly up to 57.4 µM
Inconclusive results are not listed. Active and inactive are the calls of the source. The call rests on the fitted dose curve; in most records, active means well fitted inhibition curve with a large enough effect in the repeat runs; inconclusive means weak or mixed curves; inactive means no such curve, though single readings can be large or run the other way.
The reply should name one outcome from label 1 for active, label 0 for inactive

Consider the following illustrative entries.
> print(dat)
                                   compound      cat
1           COc1ccc(C2C(=O)c3ccccc3C2=O)cc1  label 0
2  COc1c(C)c2c(c(O)c1C/C=C(\C)CCC(=O)O)C(=O)OC2  label 0

Query: recorded result category for C[C@H]1[C@H](NC(=O)/C(=N/OC(C)(C)C(=O)O)c2csc(N)n2)C(=O)N1S(=O)(=O)O (stereo in doubt) in this test label 0

====

- System: CP191
- method_description: qHTS profiling for inhibitors of Plasmodium falciparum proliferation (AID 504749); further: nearly all actives have a fitted effect of over 60% in size
- test_conditions: P. falciparum in erythrocytes, SYBR Green DNA, 72 h; series mostly up to 28.7 µM
Inconclusive results are not listed. Active and inactive are the calls of the source. The call rests on the fitted dose curve; in most records, active means well fitted inhibition curve with a large enough effect; inconclusive means small, poorly fitted or top-dose-only effect; inactive means flat fitted curve, though single readings scatter.
The reply should name one outcome from t = active, f = inactive

> print(dat)
                                smiles.code  tested.target  cat
1  CC(C)(C)CC(C)(C)c1ccc(OCCOCC[N+](C)(C)Cc2ccccc2)cc1          CP191    t
2  CC[N+](CC)(CCNC(=O)C(=O)NCC[N+](CC)(CC)Cc1ccccc1Cl)Cc1ccccc1Cl          CP191    t
3  COc1ccc(CN2CCN(C(c3ccc(F)cc3)c3ccc(F)cc3)CC2)c(OC)c1OC          CP191    t
4                              Oc1ccc(O)cc1          CP191    f

--- query ---
Query: recorded result category for Cc1ncc(CSSCc2cnc(C)c(O)c2CO)c(CO)c1O in this test f

====

- Test system: CP252
- method_description: qHTS profiling for inhibitors of Plasmodium falciparum proliferation (AID 504749); further: nearly all actives have a fitted effect of over 60% in size
- test_conditions: P. falciparum in erythrocytes, SYBR Green DNA, 72 h; series mostly up to 28.7 µM
Results filed as inconclusive are left out. Active and inactive are the calls of the source. Calls come from the whole dose curve; as a rule, active = well fitted inhibition curve with a large enough effect; inconclusive = small, poorly fitted or top-dose-only effect; inactive = flat fitted curve, though single readings scatter.
The reply should name one outcome from active, inactive

> print(dat)
                                   molecule       cat
1               CCCCOc1ccc(OCCCN2CCOCC2)cc1  inactive
2  CCCCc1nc(Cl)c(CO)n1Cc1ccc(-c2ccccc2-c2nn[nH]n2)cc1    active
3  CC(=O)Oc1ccc(C(c2ccc(OC(C)=O)cc2)c2ccccn2)cc1  inactive
4  C[C@H]1[C@H](NC(=O)/C(=N/OC(C)(C)C(=O)O)c2csc(N)n2)C(=O)N1S(=O)(=O)O (stereo in doubt)  inactive

--- query ---
Query: recorded result category for COc1cccc(CCc2ccccc2OCC(CN(C)C)OC(=O)CCC(=O)O)c1 (centres undefined) in this test active

====

- Test system: MKL-1
- method_description: qHTS assay to identify novel small-molecules to repurpose for Merkel cell carcinoma treatment (AID 1296009); further: nearly all actives have a fitted effect of over 60% in size
- test_conditions: MCC and control cell lines, CellTiter-Glo viability, 72 h; series mostly up to 46 µM
Records with an inconclusive call do not appear. The source made the active and inactive calls. Calls follow the shape of the dose curve; as a rule, active = well fitted inhibition curve with a large enough effect; inconclusive = small, poorly fitted or top-dose-only effect; inactive = flat fitted curve, though single readings scatter.
The reply should name one outcome from 1 = active, -1 = inactive

Consider the following illustrative entries.
> print(dat)
                                smiles.code  cat
1         CCCN1CCCC[C@H]1C(=O)Nc1c(C)cccc1C   -1
2  NC(=NCCCCCCN=C(N)/N=C(\N)Nc1ccc(Cl)cc1)/N=C(\N)Nc1ccc(Cl)cc1    1

Query: recorded result category for CC1(C)O[C@@H]2C[C@H]3[C@@H]4CCC5=CC(=O)CC[C@]5(C)[C@@]4(F)[C@@H](O)C[C@]3(C)[C@]2(C(=O)CCl)O1 in this test -1

Also Nc1ccc(C(=O)Nc2ccccc2N)cc1 ? 1

Also Oc1cc(O)c2c(c1)O[C@H](c1ccc(O)c(O)c1)[C@H](O)C2 ? -1
